Exercise: for every item that follows, state its recorded half-life at 1 µM.
assay: Half life in rat liver microsomes at 1 uM pre-incubated for 5 mins followed by NADP+ addition and measured up to 20 mins by LC-MS analysis; type: ADME, Microsome

Recorded half-life at 1 µM for "CC(C)C[C@H](NC(=O)[C@H](CCc1ccccc1)NC(=O)CN1CCOCC1)C(=O)N[C@@H](Cc1ccccc1)C(=O)N[C@@H](CC(C)C)C(=O)[C@@]1(C)CO1" , please? 37.2 s

Could you do the same for "CC(C)C[C@H](NC(=O)[C@H](Cc1cscn1)NC(=O)CN1CCOCC1)C(=O)N[C@@H](Cc1ccccc1)C(=O)N[C@@H](CC(C)C)C(=O)[C@@]1(C)CO1" , please? 81.6 s

###

Exercise: for every item that follows, state its recorded half-life at 1 µM.
assay: Half life in dog liver microsomes at 1 uM pre-incubated for 5 mins followed by NADP+ addition and measured up to 20 mins by LC-MS analysis; type: ADME, Canis lupus familiaris, Microsome
Please give a number only; it is taken to be in s.

Recorded half-life at 1 µM for "CC(C)C[C@H](NC(=O)[C@H](Cc1cscn1)NC(=O)CN1CCOCC1)C(=O)N[C@@H](Cc1ccccc1)C(=O)N[C@@H](CC(C)C)C(=O)[C@@]1(C)CO1" , please? 14.6

Could you do the same for "CC(C)C[C@H](NC(=O)[C@H](CCc1ccccc1)NC(=O)CN1CCOCC1)C(=O)N[C@@H](Cc1ccccc1)C(=O)N[C@@H](CC(C)C)C(=O)[C@@]1(C)CO1" , please? 14.6

###

target: Voltage-gated inwardly rectifying potassium channel KCNH2 (Homo sapiens); experiment: Inhibition of human ERG in HEK293 cells assessed as effect on QT interval; type: cell-based
Sequence (Q12809 whole entry): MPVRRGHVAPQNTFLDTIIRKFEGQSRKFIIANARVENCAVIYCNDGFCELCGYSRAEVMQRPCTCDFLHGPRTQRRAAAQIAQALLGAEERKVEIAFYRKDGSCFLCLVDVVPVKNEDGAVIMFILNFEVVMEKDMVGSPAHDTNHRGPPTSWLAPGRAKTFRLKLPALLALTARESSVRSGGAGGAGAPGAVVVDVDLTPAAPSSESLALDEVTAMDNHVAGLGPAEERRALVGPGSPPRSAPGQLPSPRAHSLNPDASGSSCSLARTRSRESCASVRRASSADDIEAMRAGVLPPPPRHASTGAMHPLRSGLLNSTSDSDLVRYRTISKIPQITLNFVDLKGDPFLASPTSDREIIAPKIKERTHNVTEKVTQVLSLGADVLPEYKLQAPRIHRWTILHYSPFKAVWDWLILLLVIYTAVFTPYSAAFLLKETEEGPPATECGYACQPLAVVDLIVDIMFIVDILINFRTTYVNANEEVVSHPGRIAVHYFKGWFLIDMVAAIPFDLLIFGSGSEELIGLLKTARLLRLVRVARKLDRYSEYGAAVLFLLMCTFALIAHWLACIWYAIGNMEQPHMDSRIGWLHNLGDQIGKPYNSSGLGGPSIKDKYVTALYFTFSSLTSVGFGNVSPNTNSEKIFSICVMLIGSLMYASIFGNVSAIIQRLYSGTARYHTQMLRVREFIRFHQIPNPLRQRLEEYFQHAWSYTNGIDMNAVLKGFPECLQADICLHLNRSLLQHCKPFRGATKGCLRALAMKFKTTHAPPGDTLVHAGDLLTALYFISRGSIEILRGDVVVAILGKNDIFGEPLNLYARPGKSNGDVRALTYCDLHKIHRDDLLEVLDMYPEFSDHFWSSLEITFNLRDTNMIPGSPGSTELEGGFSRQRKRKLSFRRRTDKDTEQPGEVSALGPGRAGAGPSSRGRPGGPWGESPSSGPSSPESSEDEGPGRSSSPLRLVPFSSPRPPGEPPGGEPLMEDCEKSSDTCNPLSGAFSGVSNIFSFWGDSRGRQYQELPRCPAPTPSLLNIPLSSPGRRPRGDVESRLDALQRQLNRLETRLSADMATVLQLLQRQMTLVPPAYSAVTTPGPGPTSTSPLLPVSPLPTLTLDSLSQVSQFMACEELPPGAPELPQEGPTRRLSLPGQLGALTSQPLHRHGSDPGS
READOUT_NAME: IC50 (µM)
Please give a number only; it is taken to be in µM.

Form: Entry = CC(C)C[C@H](NC(=O)[C@H](CCc1ccccc1)NC(=O)CN1CCOCC1)C(=O)N[C@@H](Cc1ccccc1)C(=O)N[C@@H](CC(C)C)C(=O)[C@@]1(C)CO1 [CARFILZOMIB] | System = Voltage-gated inwardly rectifying potassium channel KCNH2 (Homo sapiens) | IC50 = ____ 92.1

###

assay: Intrinsic clearance in BALB/c mouse liver microsomes at 1 uM pre-incubated for 5 mins followed by NADP+ addition and measured up to 20 mins by LC-MS analysis; assay type: ADME, Microsome; conditions: read-out: CLH
Exercise: for every item that follows, state its recorded microsomal CLint at 1 µM.
Please give a number only; it is taken to be in µL/min/mg.

Recorded microsomal CLint at 1 µM for "CC(C)C[C@H](NC(=O)[C@H](CCc1ccccc1)NC(=O)CN1CCOCC1)C(=O)N[C@@H](Cc1ccccc1)C(=O)N[C@@H](CC(C)C)C(=O)[C@@]1(C)CO1" , please? 4100

Could you do the same for "CC(C)C[C@H](NC(=O)[C@H](Cc1cscn1)NC(=O)CN1CCOCC1)C(=O)N[C@@H](Cc1ccccc1)C(=O)N[C@@H](CC(C)C)C(=O)[C@@]1(C)CO1" , please? 1250

###

Exercise: for every item that follows, state its recorded microsomal CLint at 1 µM.
assay: Intrinsic clearance in human liver microsomes at 1 uM pre-incubated for 5 min followed by NADP+ addition and measured up to 20 mins by LC-MS analysis; format: ADME, Microsome; details: read-out: CLH
Please give a number only; it is taken to be in µL/min/mg.

Recorded microsomal CLint at 1 µM for "CC(C)C[C@H](NC(=O)[C@H](CCc1ccccc1)NC(=O)CN1CCOCC1)C(=O)N[C@@H](Cc1ccccc1)C(=O)N[C@@H](CC(C)C)C(=O)[C@@]1(C)CO1" , please? 4850

Could you do the same for "CC(C)C[C@H](NC(=O)[C@H](Cc1cscn1)NC(=O)CN1CCOCC1)C(=O)N[C@@H](Cc1ccccc1)C(=O)N[C@@H](CC(C)C)C(=O)[C@@]1(C)CO1" , please? 1300

###

experiment: Half life in human liver microsomes at 1 uM pre-incubated for 5 mins followed by NADP+ addition and measured up to 20 mins by LC-MS analysis; type: ADME, Microsome
READOUT_NAME: half-life at 1 µM (s)
Please give a number only; it is taken to be in s.

Recorded half-life at 1 µM for "CC(C)C[C@H](NC(=O)[C@H](Cc1cscn1)NC(=O)CN1CCOCC1)C(=O)N[C@@H](Cc1ccccc1)C(=O)N[C@@H](CC(C)C)C(=O)[C@@]1(C)CO1" , please? 64.2

Could you do the same for CC(C)C[C@H](NC(=O)[C@H](CCc1ccccc1)NC(=O)CN1CCOCC1)C(=O)N[C@@H](Cc1ccccc1)C(=O)N[C@@H](CC(C)C)C(=O)[C@@]1(C)CO1 [CARFILZOMIB] , please? 17.2

###

assay: Intrinsic clearance in monkey liver microsomes at 1 uM pre-incubated for 5 min followed by NADP+ addition and measured up to 20 mins by LC-MS analysis; assay type: ADME, Macaca mulatta, Microsome; settings: rhesus monkey, read-out: CLH
READOUT_NAME: microsomal CLint at 1 µM (µL/min/mg)
Please give a number only; it is taken to be in µL/min/mg.

Recorded microsomal CLint at 1 µM for "CC(C)C[C@H](NC(=O)[C@H](Cc1cscn1)NC(=O)CN1CCOCC1)C(=O)N[C@@H](Cc1ccccc1)C(=O)N[C@@H](CC(C)C)C(=O)[C@@]1(C)CO1" , please? 6560

###

Exercise: for every item that follows, state its recorded microsomal CLint at 1 µM.
assay: Intrinsic clearance in dog liver microsomes at 1 uM pre-incubated for 5 mins followed by NADP+ addition and measured up to 20 mins by LC-MS analysis; format: ADME, Canis lupus familiaris, Microsome; conditions: read-out: CLH
Please give a number only; it is taken to be in µL/min/mg.

Recorded microsomal CLint at 1 µM for CC(C)C[C@H](NC(=O)[C@H](CCc1ccccc1)NC(=O)CN1CCOCC1)C(=O)N[C@@H](Cc1ccccc1)C(=O)N[C@@H](CC(C)C)C(=O)[C@@]1(C)CO1 [CARFILZOMIB] , please? 5670

Could you do the same for "CC(C)C[C@H](NC(=O)[C@H](Cc1cscn1)NC(=O)CN1CCOCC1)C(=O)N[C@@H](Cc1ccccc1)C(=O)N[C@@H](CC(C)C)C(=O)[C@@]1(C)CO1" , please? 5710
